The origin of these recorded values is patent US20110262446A1.

# competition score (0 = does not compete significantly, 5 = competes strongly) per entry
# subject of test: T1, IGF-II (amino acids 1-67) (human, UniProt P01344 25-91)
# T1 construct: mature; also called IGF-II (67aa); IGF2
# experiment summary: SPR (Biacore T100): IgG captured on Protein G', ligand bound, then BP injected; competitor BP2
Report the value in score 0-5 with no unit label.

- binder: "M0064-E04 IgG (antibody, V domains shown, IgG form of the Fab; also called non-germlined M0064-E04) VH: EVQLLESGGGLVQPGGSLRLSCAASGFTFSVYDMNWVRQAPGKGLEWVSSISSSGGGTLYADSVKGRFTISRDNSKNTLYLQMNSLRAEDTAVYYCARDSDTSSYYWYYDLWGRGTLVTVSS VL: DIQMTQSPSSLSASVGDRVTITCQASHDISNYLNWYQQKPGKAPKLLIYAASRLQSGVPSRFSGGGSGTDFSLTISSLQAEDFATYYCQQSYSFPRTFGQGTNLEIK"
  unit name: "score 0-5"
  endpoint result: 5

The value of competition score (0 = does not compete significantly, 5 = competes strongly) measured for the binder M0064-F02 IgG (antibody, V domains shown, IgG form of the Fab; also called non-germlined M0064-F02) VH: EVQLLESGGGLVQPGGSLRLSCAASGFTFSNYIMWWVRQAPGKGLEWVSVISSSGGMTRYADSVKGRFTISRDNSKNTLYLQMNSLRAEDTAVYYCARDNGDYVGEKGFDIWGQGTMVTVSS VL: DIQMTQSPSSLSASVGDRVTITCRASQSISNYLNWYQQKPGKAPKLLIYTASTLQSGVPSRFSGSASGTDFTLTINSLQPEDFATYSCQQSYNSPWTFGQGTKVEIK turned out to be 4

The value of competition score (0 = does not compete significantly, 5 = competes strongly) measured for the binder M0072-C06 IgG (antibody, V domains shown) VH: EVQLLESGGGLVQPGGSLRLSCAASGFTFSAYIMTWVRQAPGKGLEWVSSISPSGGYTVYADSVKGRFTISRDNSKNTLYLQMNSLRAEDTAVYYCARDSGFGDPFDYWGQGTMVTVSS VL: DIQMTQSPSSLSASVGDRVTITCRASQSIRNYLNWYQQKPGKAPKLLIYAASKLEDGVPSRFSGSGTGTDFTLTIRSLQPEDFASYFCQQSYSSPGITFGPGTKVEIK turned out to be 3
